Test system: PPAR-γ (promoter/enhancer of the murine aP2 gene in 3T3-L1 cells)
Test: 3T3-L1 transient reporter assay (AD3T3L1)
Format: cell-based
Details: Mus musculus
experimental.endpoint: pEC50
// returns pEC50 (minus log10 of molar concentration), number only

Cc1oc(-c2ccccc2)nc1CCOc1ccc(CCC(=O)O)c(O)c1: 5.47

*Q* Report pEC50 for Cc1oc(-c2ccccc2)nc1CCOc1ccc(CCC(=O)O)c(OCc2ccccn2)c1 tested on PPAR-γ (promoter/enhancer of the murine aP2 gene in 3T3-L1 cells).
*A* 6.99
